Test system: breast cancer cell line MCF7
assay-details: WST-1 cancer cell killing (cell survival) test in breast cancer cell line MCF7
Format: cell-based
test-conditions: 48 hours, antidepressant at Table 1 concentration combined with 30 μM ribociclib
measured-property: Cell survival rate (%) Combined treatment with ribociclib
Numbers only, in %.

Here is how some compounds turned out for Cell survival rate (%) Combined treatment with ribociclib.
{"columns": ["smiles-structure", "assay-target", "value-measured"],
 "data": [
  ["CCN(CC)c1ccc(C(c2ccc(N(CC)CC)cc2)=c2ccc3c(c2)CCc2ccccc2[N+]=3CCCN(C)C)cc1", "breast cancer cell line MCF7", 60],
  ["CN(C)CCC=C1c2ccccc2CCc2ccccc21", "breast cancer cell line MCF7", 28],
  ["CN(C)CCCN1c2ccccc2CCc2ccccc21", "breast cancer cell line MCF7", 55]
]}

Next:
For reference, reported Cell survival rate (%) Combined treatment with ribociclib for `CN(C)CCCN1c2ccccc2CCc2ccc(Cl)cc21` stands at 56
